# Test system: MEL-28 human melanoma
# Measurement Notes: Cytotoxicity IC50 (after Berjeron et al)
# Condition Parameters: read-out: Cytotoxicity of aplidine derivatives IC50 (Molar) MEL28; MEL28
Value Type: pIC50
Here pIC50 is given on a logarithmic scale as minus log10 of the concentration in mol/L.

-- ask pIC50 lookup needed for [ZNVa-Pro]^9-aplidine [9NVSAPL2] , thanks.
-- reply 8.41

* * *

# Test system: P388 Murine lymphoma
# Measurement Notes: Cytotoxicity IC50 (after Berjeron et al)
# Condition Parameters: Mus musculus, P388, read-out: Cytotoxicity of aplidine derivatives IC50 (Molar) P388
*1 amine or outer side, *2 acyl side, *3 side chain or, on linkers, in order; H or OH if unused. Where a SMILES comes first, the peptide text is derived from it. Bridges are numbered along the chain shown (N, C = ends). [ ]: non-standard residue; d: D form. The star is where a group is joined. X1 = CC[C@H](C)[C@@H](N[*:1])[C@@H](O)CC(=O)O[C@H](C(=O)[C@H](C)C(=O)[*:2])C(C)C; X2 = CC[C@H](C)[C@@H](N[*:1])[C@@H](O)CC(=O)[*:2]; NMeY = CN[C@@H](Cc1ccc(O)cc1)C(=O)O; dNMeL = CN[C@H](CC(C)C)C(=O)O; Hiv = CC(C)[C@H](O)C(=O)O; Cbz = O=C(OCc1ccccc1)*
IC50 for assorted compounds
Record the value in nM, omitting the unit from your answer.

Worked examples follow.
Compound: CC[C@H](C)[C@H]1NC(=O)[C@@H](NC(=O)[C@@H](CC(C)C)N(C)C(=O)OCc2ccccc2)[C@@H](C)OC(=O)[C@H](Cc2ccc(OC)cc2)N(C)C(=O)[C@@H]2CCCN2C(=O)[C@H](CC(C)C)NC(=O)[C@@H](C)C(=O)[C@H](C(C)C)OC(=O)C[C@@H]1O [SAPL3, Z-Didemnin A] (Cbz-[dNMeL]T[X1]LP[NMeY](Me); ester 2-C)
IC50 [nM]: 9.3

Compound: CC[C@H](C)[C@H]1NC(=O)[C@@H](NC(=O)[C@@H](CC(C)C)NC)[C@@H](C)OC(=O)[C@H](Cc2ccc(OC)cc2)N(C)C(=O)[C@@H]2CCCN2C(=O)[C@H](CC(C)C)NC(=O)[C@H](C(C)C)NC(=O)C[C@@H]1O [SVPL2, [Val]^3-Didemnin A] (H-[dNMeL]T[X2]VLP[NMeY](Me); ester 2-C)
IC50 [nM]: 1.1

Compound: CC[C@H](C)[C@H]1NC(=O)[C@@H](NC(=O)[C@@H](CC(C)C)NC)[C@@H](C)OC(=O)[C@H](Cc2ccc(OC)cc2)N(C)C(=O)[C@@H]2CCCN2C(=O)[C@H](CC(C)C)NC(=O)[C@@H](C)C(=O)[C@H](C(C)C)OC(=O)C[C@@H]1O [SAPL2, Didemnin A, reference compound] (H-[dNMeL]T[X1]LP[NMeY](Me); ester 2-C)
IC50 [nM]: 5.3

Continue with the compound presented below.
-- ask IC50 lookup needed for CC[C@H](C)[C@H]1NC(=O)[C@@H](NC(=O)[C@@H](CC(C)C)NC)[C@@H](C)OC(=O)[C@H](Cc2ccc(OC)cc2)N(C)C(=O)[C@@H]2CCCN2C(=O)[C@H](CC(C)C)NC(=O)[C@H](C(C)C)OC(=O)C[C@@H]1O [SHPL2, [Hiv]^3-Didemnin A] (H-[dNMeL]T[X2][Hiv]LP[NMeY](Me); ester 2-C) , thanks.
-- reply 1.1

* * *

# System: A549 human lung carcinoma
# Measurement Notes: Cytotoxicity IC50 (after Berjeron et al)
# Condition Parameters: Homo sapiens, A549, read-out: Cytotoxicity of [aa3]-aplidine Congeners IC50 (Molar) A549
*1 amine or outer side, *2 acyl side, *3 side chain or, on linkers, in order; H or OH if unused. Where a SMILES comes first, the peptide text is derived from it. Bridges are numbered along the chain shown (N, C = ends). [ ]: non-standard residue; d: D form. The star is where a group is joined. X1 = CC[C@H](C)[C@@H](N[*:1])[C@@H](O)CC(=O)O[C@H](C(=O)[C@H](C)C(=O)[*:2])C(C)C; X2 = CC[C@H](C)[C@@H](N[*:1])[C@@H](O)CC(=O)[*:2]; X4 = CC(C)[C@H](N[*:1])C(=O)[C@H](C)C(=O)[*:2]; NMeY = CN[C@@H](Cc1ccc(O)cc1)C(=O)O; dNMeL = CN[C@H](CC(C)C)C(=O)O; Pyruvoyl = CC(=O)C(=O)*
Value Type: pIC50
Here pIC50 is given on a logarithmic scale as minus log10 of the concentration in mol/L.

Worked examples follow.
Compound: CC[C@H](C)[C@H]1NC(=O)[C@@H](NC(=O)[C@@H](CC(C)C)N(C)C(=O)[C@@H]2CCCN2C(=O)C(C)=O)[C@@H](C)OC(=O)[C@H](Cc2ccc(OC)cc2)N(C)C(=O)[C@@H]2CCCN2C(=O)[C@H](CC(C)C)NC(=O)[C@@H](C)C(=O)[C@H](C(C)C)OC(=O)C[C@@H]1O [SAPL1, Aplidine] (Pyruvoyl-P[dNMeL]T[X1]LP[NMeY](Me); ester 3-C)
Value Type: pIC50
Observed Result: 9.74
//
Compound: CC[C@H](C)[C@H]1NC(=O)[C@@H](NC(=O)[C@@H](CC(C)C)N(C)C(=O)[C@@H]2CCCN2C(=O)C(C)=O)[C@@H](C)OC(=O)[C@H](Cc2ccc(OC)cc2)N(C)C(=O)[C@@H]2CCCN2C(=O)[C@H](CC(C)C)NC(=O)[C@@H](C)C(=O)[C@H](C(C)C)NC(=O)C[C@@H]1O [SNPL1, [Aip]^3-Aplidine] (Pyruvoyl-P[dNMeL]T[X2][X4]LP[NMeY](Me); ester 3-C)
Value Type: pIC50
Observed Result: 9.05

-- ask pIC50 lookup needed for CC[C@H](C)[C@H]1NC(=O)[C@@H](NC(=O)[C@@H](CC(C)C)N(C)C(=O)[C@@H]2CCCN2C(=O)C(C)=O)[C@@H](C)OC(=O)[C@H](Cc2ccc(OC)cc2)N(C)C(=O)[C@@H]2CCCN2C(=O)[C@H](CC(C)C)NC(=O)[C@H](C(C)C)NC(=O)C[C@@H]1O [SVPL1, [Val]^3-Aplidine] (Pyruvoyl-P[dNMeL]T[X2]VLP[NMeY](Me); ester 3-C) , thanks.
-- reply 9.95

Recorded values, source patent US20080009435A1.
